- system_tested: μ-opioid receptors (MOP receptors) (Mus musculus)
- Construct: expressed in transfected cells; host or cells: HEK293
- Sequence (P42866 whole entry): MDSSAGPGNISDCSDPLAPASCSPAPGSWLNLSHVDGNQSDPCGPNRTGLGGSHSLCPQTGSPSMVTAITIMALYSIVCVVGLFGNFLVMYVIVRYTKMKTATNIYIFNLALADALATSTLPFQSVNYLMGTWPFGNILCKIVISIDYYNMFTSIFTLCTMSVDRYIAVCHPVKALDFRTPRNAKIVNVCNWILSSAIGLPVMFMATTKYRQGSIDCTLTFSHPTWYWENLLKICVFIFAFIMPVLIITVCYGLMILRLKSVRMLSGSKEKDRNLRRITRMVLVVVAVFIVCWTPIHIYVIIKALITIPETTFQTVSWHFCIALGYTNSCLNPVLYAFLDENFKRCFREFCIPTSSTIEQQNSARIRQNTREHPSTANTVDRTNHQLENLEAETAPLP
- Type: cell-based
- condition_parameters: Conc 10^−17 M
For each record, write down the corresponding % of forskolin stimulated cyclic AMP response.
Numbers only; they are read as %.

*Q* Fill blank: measured % of forskolin stimulated cyclic AMP response of the compound `COc1ccc(-c2no[n+]([O-])c2C)cc1` is ____.
*A* 70.0

*Q* I would be grateful if you could share the reported % of forskolin stimulated cyclic AMP response for `O=C(O)c1c(-c2ccc(F)cc2)no[n+]1[O-]` .
*A* 94.1

*Q* Need % of forskolin stimulated cyclic AMP response, item `CCc1c(C(=O)O)no[n+]1[O-]`
*A* 115.0

*Q* State the recorded % of forskolin stimulated cyclic AMP response for this entry: `Cc1c(-c2ccc(F)cc2)no[n+]1[O-]`
*A* 73.6

*Q* Look up % of forskolin stimulated cyclic AMP response: `O=Cc1c(-c2ccccc2)no[n+]1[O-]`
*A* 120.5

*Q* So what's the measured % of forskolin stimulated cyclic AMP response for this one? `Cc1c(-c2ccccc2)no[n+]1[O-]`
*A* 105.3

*Q* // % of forskolin stimulated cyclic AMP response lookup, key: `[O-][n+]1onc(-c2ccc(F)cc2)c1-c1ccc(F)cc1`
*A* 49.1

*Q* Request the reported % of forskolin stimulated cyclic AMP response associated with `Cc1c(C(=O)O)no[n+]1[O-]`
*A* 83.9

*Q* Look up % of forskolin stimulated cyclic AMP response: `[O-][n+]1onc(-c2ccccc2)c1-c1ccccc1`
*A* 75.8

*Q* Item under review: `O=C1CCc2c1no[n+]2[O-]` . Reported % of forskolin stimulated cyclic AMP response?
*A* 100.4
